- Target System: HLA-A*02:01
- Assay Info: IEDB peptide-MHC binding, purified MHC/direct/fluorescence; filed as Kd, often an IC50 or EC50 that approximates it; bounds were set here for any values at or beyond the usual limits of such assays
- Condition Set: source organism: Francisella tularensis subsp. holarctica LVS

Sequence Code: YMYQYIQEL
Kd: ≤ 1 nM

====

- Target System: HLA-A*69:01
- Assay Info: IEDB peptide-MHC binding, purified MHC/direct/fluorescence; filed as Kd, often an IC50 or EC50 that approximates it; bounds were set here for any values at or beyond the usual limits of such assays
- Condition Set: source organism: Human betaherpesvirus 6B

Sequence Code: ICDDVLSKY
Target System: HLA-A*69:01
Kd, nM: 2690
